Source: ChEMBL document CHEMBL1152104

- assayed target: Neurotensin receptor type 1 (Rattus norvegicus)
- Sequence (P20789 whole entry): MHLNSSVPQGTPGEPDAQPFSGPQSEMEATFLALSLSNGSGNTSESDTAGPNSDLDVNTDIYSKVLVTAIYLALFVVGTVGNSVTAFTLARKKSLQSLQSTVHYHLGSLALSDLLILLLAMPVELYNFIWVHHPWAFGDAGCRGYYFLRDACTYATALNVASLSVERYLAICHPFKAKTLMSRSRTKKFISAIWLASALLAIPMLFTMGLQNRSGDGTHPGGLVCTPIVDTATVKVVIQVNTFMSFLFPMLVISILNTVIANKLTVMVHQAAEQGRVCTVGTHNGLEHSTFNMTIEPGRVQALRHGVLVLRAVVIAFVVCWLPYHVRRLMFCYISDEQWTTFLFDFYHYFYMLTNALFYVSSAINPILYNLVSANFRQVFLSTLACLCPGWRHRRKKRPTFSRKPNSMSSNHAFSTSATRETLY
- assay remarks: Equilibrium dissociation constant at cloned rat Neurotensin receptor (NT) receptor expressed in CHO-K1 cells; 0.3-0.7 uM
- Format: cell-based
pKd: −log10 of the molar value.
endpoint label: pKd

• CC[C@H](C)[C@H](NC(=O)[C@H](Cc1c[nH]c2ccccc12)NC(=O)c1[nH]c2c(OCCCCCN=C(N)N)cccc2c1CCCCCCN=C(N)N)C(=O)N[C@@H](CC(C)C)C(=O)O = 6.52
• CC[C@H](C)[C@H](NC(=O)[C@H](Cc1ccc(O)cc1)NC(=O)c1[nH]c2c(OCCCCCN=C(N)N)cccc2c1CCCCCCN=C(N)N)C(=O)N[C@@H](CC(C)C)C(=O)O.O=C(O)C(F)(F)F = 6.52
• CC[C@H](C)[C@H](NC(=O)[C@H](Cc1ccc(O)cc1)NC(=O)c1[nH]c2c(OCCCCCN)cccc2c1CCCCCCN)C(=O)N[C@@H](CC(C)C)C(=O)O = 6.52
